quantityMeasured: melting point

Solved cases (3 shown):
{"molecule": "O=C(CSc1nnc(Cc2c[nH]c3ccccc23)o1)Nc1nccs1 [Compound 2g]", "melting point": "177.4 to 178.2 °C"}
{"molecule": "O=C(CSc1nnc(Cc2c[nH]c3ccccc23)o1)Nc1nc2ccc(Br)cc2s1 [Compound 2c]", "melting point": "240.6 to 241.5 °C"}
{"molecule": "CCOC(=O)Cc1csc(NC(=O)CSc2nnc(Cc3c[nH]c4ccccc34)o2)n1 [Compound 2i]", "melting point": "158 to 158.6 °C"}

Please turn your attention to the following entry.
Request: Fill blank: measured melting point of the molecule O=C(CSc1nnc(Cc2c[nH]c3ccccc23)o1)Nc1ncc([N+](=O)[O-])s1 [Compound 2h] is ____.
Result: 233.9 to 234.5 °C
